target: IDO1 (Homo sapiens, UniProt P14902); experiment: IDO1 Cellular Assay in HeLa Cells Stimulated with IFNγ; format: cell-based; conditions: about 48 hours, read-out: Hela IC50
Sequence (P14902 whole entry): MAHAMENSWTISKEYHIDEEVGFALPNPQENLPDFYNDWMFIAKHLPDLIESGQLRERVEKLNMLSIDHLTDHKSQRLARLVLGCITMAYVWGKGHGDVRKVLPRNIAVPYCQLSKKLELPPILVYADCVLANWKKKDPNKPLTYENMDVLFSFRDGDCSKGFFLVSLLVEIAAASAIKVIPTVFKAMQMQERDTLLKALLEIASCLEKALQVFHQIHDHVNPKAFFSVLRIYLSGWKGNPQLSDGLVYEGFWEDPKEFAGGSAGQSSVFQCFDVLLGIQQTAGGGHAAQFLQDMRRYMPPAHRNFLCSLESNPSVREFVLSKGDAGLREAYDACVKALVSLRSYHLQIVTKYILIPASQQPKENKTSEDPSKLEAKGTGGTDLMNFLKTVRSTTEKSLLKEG
pIC50: −log10 of the molar value.

>  <Compound>
CC(C(=O)Nc1ccc(F)cc1)c1ccc2c(n1)CCCN2C(=O)C1CCCCO1 (centres unmarked) [Example 158]

>  <pIC50>
7.42

$$$$
>  <Compound>
CC(NC(=O)c1ccc(F)cc1)c1ccc2c(n1)CCCN2C(=O)C1COC1 (centres unmarked)

>  <pIC50>
5.81

$$$$
>  <Compound>
O=C(C1COC1)N1CCCc2cc(C3(C(=O)Nc4ccc(F)cc4)CCC3)ccc21

>  <pIC50>
7.70

$$$$
>  <Compound>
O=C(OC1CC1)N1CCc2cc(C3(C(=O)Nc4ccc(F)cc4)CCC3)ccc21

>  <pIC50>
8.92

$$$$
>  <Compound>
C[C@H](C(=O)Nc1ccc(F)cc1)c1ccc2c(c1)CCCN2C(=O)CC#N

>  <pIC50>
5.60

$$$$
>  <Compound>
CC(C(=O)Nc1ccc(F)cc1)c1ccc2c(n1)CCCN2C(=O)[C@H]1CCCO1 (some centres unmarked)

>  <pIC50>
7.92

$$$$
>  <Compound>
CC(NC(=O)c1ccc(Cl)cc1)c1ccc2c(n1)OCCN2C(=O)c1ccccc1 (racemic)

>  <pIC50>
8.46

$$$$
>  <Compound>
O=C(c1cnn(C2CC2)c1)N1CCCc2cc(C3(C(=O)Nc4ccc(F)cc4)CCC3)ccc21

>  <pIC50>
7.18

$$$$
